Data provenance is patent US20090197852A9.

experiment: clinical; conditions: human, in vivo, iv, 450 mg/m2, Cmax, Cohort 4, 17-AAG 450 mg/m^2 IV over 120 min with trastuzumab, first dose, mean;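 also: Open-label dose-escalation clinical trial, plasma drug levels measured by validated LC-MS, sampling during the first 4-week treatment cycle only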
test.readout: Cmax

Memo: C=CCNC1=C2C[C@@H](C)C[C@H](OC)[C@H](O)[C@@H](C)/C=C(\C)[C@H](OC(N)=O)[C@@H](OC)/C=C\C=C(/C)C(=O)NC(=CC1=O)C2=O , reported Cmax: 8110 ng/mL

====

experiment: clinical; conditions: human, in vivo, iv, 225 mg/m2
test.readout: Tmax

Memo: C=CCNC1=C2C[C@@H](C)C[C@H](OC)[C@H](O)[C@@H](C)/C=C(\C)[C@H](OC(N)=O)[C@@H](OC)/C=C\C=C(/C)C(=O)NC(=CC1=O)C2=O , reported Tmax: 1.8 h

====

experiment: clinical; conditions: human, in vivo, iv, 300 mg/m2
test.readout: AUC

Memo: C=CCNC1=C2C[C@@H](C)C[C@H](OC)[C@H](O)[C@@H](C)/C=C(\C)[C@H](OC(N)=O)[C@@H](OC)/C=C\C=C(/C)C(=O)NC(=CC1=O)C2=O , reported AUC: 281 ng·h/mL

====

assay: clinical; conditions: human, in vivo, iv, 375 mg/m2
test.readout: Tmax (h)
Just the number please, in h, no unit attached.

Memo: C=CCNC1=C2C[C@@H](C)C[C@H](OC)[C@H](O)[C@@H](C)/C=C(\C)[C@H](OC(N)=O)[C@@H](OC)/C=C\C=C(/C)C(=O)NC(=CC1=O)C2=O , reported Tmax: 1.9

====

assay: clinical; details: human, in vivo, MRT, All cohorts combined, Median
test.readout: MRT (h)
Just the number please, in h, no unit attached.

Memo: C=CCNC1=C2C[C@@H](C)C[C@H](OC)[C@H](O)[C@@H](C)/C=C(\C)[C@H](OC(N)=O)[C@@H](OC)/C=C\C=C(/C)C(=O)NC(=CC1=O)C2=O [17-AAG, 17-allylamino-17-demethoxygeldanamycin] , reported MRT: 4.26

====

assay: clinical; details: human, in vivo, Vss, All cohorts combined, Median
test.readout: Vd (L)
Just the number please, in L, no unit attached.

Memo: C=CCNC1=C2C[C@@H](C)C[C@H](OC)[C@H](O)[C@@H](C)/C=C(\C)[C@H](OC(N)=O)[C@@H](OC)/C=C\C=C(/C)C(=O)NC(=CC1=O)C2=O [17-AAG, 17-allylamino-17-demethoxygeldanamycin] , reported Vd: 128

====

experiment: clinical; details: human, in vivo, iv, 450 mg/m2
test.readout: AUC(0-t) (ng·h/mL)
Just the number please, in ng·h/mL, no unit attached.

Memo: C=CCNC1=C2C[C@@H](C)C[C@H](OC)[C@H](O)[C@@H](C)/C=C(\C)[C@H](OC(N)=O)[C@@H](OC)/C=C\C=C(/C)C(=O)NC(=CC1=O)C2=O , reported AUC(0-t): 27900

====

assay: clinical; details: human, in vivo, iv, 225 mg/m2
test.readout: AUC(0-t) (ng·h/mL)
Just the number please, in ng·h/mL, no unit attached.

Memo: C=CCNC1=C2C[C@@H](C)C[C@H](OC)[C@H](O)[C@@H](C)/C=C(\C)[C@H](OC(N)=O)[C@@H](OC)/C=C\C=C(/C)C(=O)NC(=CC1=O)C2=O [17-AAG, 17-allylamino-17-demethoxygeldanamycin] , reported AUC(0-t): 7950
